- System: Wild type
- experiment_summary: S. aureus survival, RN4220 and DeltatarO strains – OD600, teichoic acid synthesis inhibitors, primary screen (AID 463173)
- condition_info: S. aureus RN4220 wild type/DeltatarO growth, OD600, 18 h, active compounds read low, screened at 18.75 µg/mL (by protocol)
About 1,700 (3.3%) of roughly 52,000 compounds were called active. What follows is part of a selection rich in actives, with near analogues and random picks from the rest.
observable: survival (%)

- molecule: "O=C(CCc1ccccc1)NC1CC(=O)N(c2ccccc2)C1 (configuration not stated)"
  units_text: "%"
  observed: 78
- molecule: "Cc1ccc(N2CC(NC(=O)CCCc3ccccc3)CC2=O)cc1 (configuration not stated)"
  units_text: "%"
  observed: 53
- molecule: "c1ccc(-n2nc3ccc4nonc4c3n2)cc1"
  units_text: "%"
  observed: 104
- molecule: "O=C(c1cccn1-c1nnc(N2CCCC2)s1)N1CCN(c2ccccc2)CC1"
  units_text: "%"
  observed: 19
- molecule: "Cc1ccc(C)c(Cn2c(=O)n(Cc3ccc4c(c3)OCO4)c(=O)c3oc4ccccc4c32)c1"
  units_text: "%"
  observed: 89
- molecule: "Cc1ccc(N2CC(NC(=O)CCc3ccccc3)CC2=O)cc1 (configuration not stated)"
  units_text: "%"
  observed: -3
- molecule: "CCOC(=O)c1cc(-c2ccccc2)n(-c2cccc(C(=O)Nc3cccc(SC)c3)c2)c1C"
  units_text: "%"
  observed: 0
- molecule: "CCN1CCN(c2csc3ccc(Br)cc3c2=O)CC1"
  units_text: "%"
  observed: 83
- molecule: "Cc1cccc(OC(=O)c2cc(-c3ccc(C)c(C)c3)on2)c1"
  units_text: "%"
  observed: -7
- molecule: "Cc1ccc(NC(=O)c2cnn3c(C(F)F)cc(-c4ccccc4)nc23)cc1F"
  units_text: "%"
  observed: 86
- molecule: "CCCCn1nc(NC(=O)c2cccc(Cl)c2)c2cc3ccccc3nc21"
  units_text: "%"
  observed: 86
- molecule: "CCOC(=O)c1cc(-c2ccccc2)n(-c2cccc(C(=O)Nc3cc(OC)cc(OC)c3)c2)c1C"
  units_text: "%"
  observed: 88
- molecule: "COc1ccc(CNC(=O)c2cccn2-c2nnc(N3CCCCC3)s2)c(OC)c1"
  units_text: "%"
  observed: -2
- molecule: "CCOC(=O)c1cccc(NC(=O)NCCc2c(C)nn(C)c2C)c1"
  units_text: "%"
  observed: 63
- molecule: "CCOC(=O)c1cc(-c2ccccc2)n(-c2cccc(C(=O)Nc3ccc(OC)cc3)c2)c1C"
  units_text: "%"
  observed: 77
- molecule: "COc1ccc(CNC(=O)c2cccn2-c2nnc(N3CCCC3)s2)c(OC)c1"
  units_text: "%"
  observed: 81
- molecule: "CCCN(CCC)CCNC(=O)c1cc2c(-c3ccc(Cl)cc3)nn(C)c2s1"
  units_text: "%"
  observed: 81
- molecule: "On1c2c(c3c4nonc4ccc31)CCCC2"
  units_text: "%"
  observed: 8
- molecule: "COc1ccc(C(=O)NCCn2cc(SCC(=O)Nc3ccccc3)c3ccccc32)cc1OC"
  units_text: "%"
  observed: 65
- molecule: "c1ccc(N2CCN(Cc3nnc(-c4ccc5c(c4)OCO5)o3)CC2)cc1"
  units_text: "%"
  observed: 81
- molecule: "COc1ccccc1CNC(=O)c1cccn1-c1nnc(N2CCCC2)s1"
  units_text: "%"
  observed: 81
- molecule: "CC(=O)Nc1ccc(NC(=O)c2cc(-c3ccc4c(c3)OCCO4)on2)cc1"
  units_text: "%"
  observed: 109
- molecule: "Fc1cccc(-c2cc3nc4c(c(NCCCN5CCOCC5)n3n2)CCCC4)c1"
  units_text: "%"
  observed: 103
- molecule: "Cc1ccc(N2CCN(C(=O)c3cn(C)c4ccc(S(=O)(=O)N5CCCC5)cc4c3=O)CC2C)cc1 (configuration not stated)"
  units_text: "%"
  observed: 134
- molecule: "CCOc1ccc(C(=O)N(C)CC2COc3ccccc3O2)cc1 (configuration not stated)"
  units_text: "%"
  observed: 98
- molecule: "CCOC(=O)CC(N)c1ccc2c(c1)OCO2 (configuration not stated)"
  units_text: "%"
  observed: 111
- molecule: "Cc1cc(C)cc(OC(=O)c2cc(-c3ccc(Cl)cc3)on2)c1"
  units_text: "%"
  observed: 87
- molecule: "Cc1cccc(NC(=O)CN2C(=O)C(c3ccc(F)cc3)=NC23CCCCCC3)c1C"
  units_text: "%"
  observed: 73
- molecule: "Cc1cc(C)cc(OC(=O)c2cc(-c3ccc4c(c3)OCCO4)on2)c1"
  units_text: "%"
  observed: -7
- molecule: "O=C(Cn1c(-c2cccs2)cc2ccccc21)NCCCN1CCN(c2ccc(F)cc2)CC1"
  units_text: "%"
  observed: 136
- molecule: "COc1ccccc1OC(C)C(=O)Nc1cccc(-c2nc3ccccc3s2)c1 (configuration not stated)"
  units_text: "%"
  observed: 29
- molecule: "CCOC(=O)c1c(NC(=O)CN(CC)CC)sc2c1CCC/C2=N\\O"
  units_text: "%"
  observed: 112
- molecule: "CC(=O)c1ccc(NC(=O)C2CCN(S(=O)(=O)c3ccc4c(c3)CCCN4C(=O)C3CCC3)CC2)cc1"
  units_text: "%"
  observed: 74
- molecule: "CCOc1ccccc1CNC(=O)CN1C(=O)CCn2nc(-c3cn(C)c4ccccc34)cc21"
  units_text: "%"
  observed: 87
- molecule: "CC1Cn2cc(C(=O)Nc3cccc(C(F)(F)F)c3)c(=O)c3c(Cl)ccc(c32)O1 (configuration not stated)"
  units_text: "%"
  observed: 89
- molecule: "Cc1ccc(-n2nc(C)c3c(C(=O)NCc4ccccc4)cc(C4CC4)nc32)cc1"
  units_text: "%"
  observed: 82
- molecule: "CSc1nc(Nc2cccc(C)c2)c(C#N)c(-c2ccccc2)n1"
  units_text: "%"
  observed: 104
- molecule: "CCCCN(CC)CCNC(=O)c1cc2c(-c3ccc(Cl)cc3)nn(C)c2s1"
  units_text: "%"
  observed: 5
- molecule: "CCOC(=O)c1cc(-c2ccccc2)n(-c2cccc(C(=O)Nc3cccc(F)c3)c2)c1C"
  units_text: "%"
  observed: 131
- molecule: "CC(=O)c1cccc(NC(=O)c2cc(-c3ccc4c(c3)OCCO4)on2)c1"
  units_text: "%"
  observed: 77
- molecule: "COC(=O)c1cc2oc(C)cc2n1Cc1ccccc1Cl"
  units_text: "%"
  observed: -2
- molecule: "CCOc1cc(CNC(=O)C(NS(=O)(=O)c2cccs2)C(C)C)cc(OCC)c1OCC (configuration not stated)"
  units_text: "%"
  observed: 65
